# Test system: L1210 leukemia ip in BDF1 mice, survival T/C
# Test Method Notes: NCI In Vivo Anticancer Drug Screen. Data for tumor model L1210 Leukemia (intraperitoneal) in B6D2F1 (BDF1) mice
# Experimental Conditions: endpoint: mean survival time; dose: 200.0 mg/kg/injection; schedule: Q01DX009 (ip); vehicle: saline with Tween-80; higher = longer survival
Inconclusive results and toxic doses are left out.
Result Type: T/C

Consider the worked cases shown below.
* CN(C)c1ccc(/C=N/NC(=O)Cc2cccc3ccccc23)cc1 | 86 % of control
* CC(C)C(=O)Nc1cccc(Cl)c1 | 95 % of control
* O=Cc1[nH]c(=S)[nH]c(=O)c1Cc1cccc2ccccc12 | 101 % of control
* CC(C)(C)c1cc(/C=N/NC(=O)CC2CCCCC2)cc(C(C)(C)C)c1O | 92 % of control
* Cc1ccc(Cl)cc1NC(=O)Oc1ccccc1C(=O)OCc1ccccc1 | 100 % of control

With those in mind, consider the next compound.
O=S(=O)(OC1CCCC1Cl)c1ccc(Br)cc1 (stereo unspecified) on L1210 leukemia ip in BDF1 mice, survival T/C gives T/C = 86 % of control
